This collection of values is drawn from ChEMBL document CHEMBL1165887.

- Tested on: Calf thymus DNA
- Test Details: Binding affinity to calf thymus DNA assessed as change in melting temperature after 4 hrs
- Assay type: nucleic-acid assay
- Experimental Setup: Bos taurus
Threshold rule: ΔTm greater than or equal to 10 °C is Y; below that, N.

[[record]]
molecular_string = "COc1cc2c(cc1OC)C(=O)N1C=C(c3ccc(C=O)cc3)C[C@H]1C=N2"
assigned_class = "Y"


Please indicate if the recorded ΔTm for COc1cc2c(cc1OC)C(=O)N1C=C(c3ccc4ncccc4c3)C[C@H]1C=N2 meets or exceeds 10 °C. Y

Please indicate if the recorded ΔTm for COc1cc2c(cc1OC)C(=O)N1C=C(c3ccc(N)cc3)C[C@H]1C=N2 meets or exceeds 10 °C. N

Please indicate if the recorded ΔTm for COc1cc2c(cc1OC)C(=O)N1C=C(c3cnc4ccccc4c3)C[C@H]1C=N2 meets or exceeds 10 °C. Y

---

- Test Details: Growth inhibition of human NCI60 cells after 48 hrs by SRB assay
- Format: functional
- Experimental Setup: NCI60, 48 h
Here, each record is paired with measured TGI data.
Kindly answer with a numeric value in nM, unit omitted.

Use the examples below as a reference point.
[[record]]
molecular_string = "COc1cc2c(cc1OC)C(=O)N1C=C(c3c(OC)cccc3OC)C[C@H]1C=N2"
obs_value = 1100

[[record]]
molecular_string = "COc1cc2c(cc1OC)C(=O)N1C=C(c3ccc(F)cc3)C[C@H]1C=N2"
obs_value = 120

[[record]]
molecular_string = "COc1cc2c(cc1OC)C(=O)N1C=C(c3ccc(N(C)C)cc3)C[C@H]1C=N2"
obs_value = 40

[[record]]
molecular_string = "COc1cc2c(cc1OC)C(=O)N1C=C(c3ccc([N+](=O)[O-])cc3)C[C@H]1C=N2"
obs_value = 70


Entry COc1cc2c(cc1OC)C(=O)N1C=C(c3cccc(C#N)c3)C[C@H]1C=N2 : reported TGI = ? 560

---

Here, each record is paired with measured ΔTm data.
- Test system: Calf thymus DNA
- Test Details: Binding affinity to calf thymus DNA assessed as change in melting temperature after 18 hrs
- Type: nucleic-acid assay
- Experimental Setup: Bos taurus
Kindly answer with a numeric value in °C, unit omitted.

[[record]]
molecular_string = "COc1cc2c(cc1OC)C(=O)N1C=C(c3ccc(F)cc3)C[C@H]1C=N2"
measurement_label = "ΔTm"
unit_label = "°C"
obs_value = 10.6


Entry COc1cc2c(cc1OC)C(=O)N1C=C(c3ccc(C#N)cc3)C[C@H]1C=N2 : reported ΔTm = ? 11

Entry COc1cc2c(cc1OC)C(=O)N1C=C(c3ccc(C(F)(F)F)cc3)C[C@H]1C=N2 : reported ΔTm = ? 11.9

Entry COc1cc2c(cc1OC)C(=O)N1C=C(c3ccc(C)cc3)C[C@H]1C=N2 : reported ΔTm = ? 10.1

Entry COc1cc2c(cc1OC)C(=O)N1C=C(c3ccc(C(C)C)cc3)C[C@H]1C=N2 : reported ΔTm = ? 6.9

Entry COc1cc2c(cc1OC)C(=O)N1C=C(c3ccccc3)C[C@H]1C=N2 : reported ΔTm = ? 10.8

---

- Test Details: Growth inhibition of human NCI60 cells after 48 hrs by SRB assay
- Assay type: functional
- Experimental Setup: NCI60, 48 h
Here, each record is paired with measured log10 of TGI data.
All values: base-10 log of TGI in nM.

Entry COc1cc2c(cc1OC)C(=O)N1C=C(c3ccc(C=O)cc3)C[C@H]1C=N2 : reported log10 of TGI = ? 2.20
